Where do these numbers come from? They come from patent US20040014187A1.

Tested on: A2780 cells
Assay: Cytotoxicity of CMDA, [3H]-thymidine incorporation
Assay type: cell-based, human
Conditions: A2780 clone A4 expressing stCPG2(Q)3
Experimental Readout: IC50 (µM)
All answers are understood in µM, so give the number only.

Lookup: Value lookup for IC50; key = CS(=O)(=O)OCCN(CCCl)c1ccc(C(=O)N[C@@H](CCC(=O)O)C(=O)O)cc1 [CMDA]
Found: 20.4

---

Test system: SK-OV-3 cells
Assay: Cytotoxicity of CMDA, [3H]-thymidine incorporation
Assay type: cell-based, human
Conditions: SK-OV-3 clone S2.34 expressing CPG2*; read-out: IC50 (μM CMDA)
Experimental Readout: IC50 (µM)
All answers are understood in µM, so give the number only.

Lookup: Value lookup for IC50; key = CS(=O)(=O)OCCN(CCCl)c1ccc(C(=O)N[C@@H](CCC(=O)O)C(=O)O)cc1 [CMDA]
Found: 1290
